# Tested on: SR leukemia
# experiment summary: NCI tumour cell line growth inhibition, 48 h
property: TGI (µM)
Output spec: scalar in µM, unitless text.

Known results for molecules:
1) O=C(c1ccccc1)c1nc2ccc(Cl)cc2cc1C(Br)Br | 21.2
2) COc1ccccc1C1C(C#N)=C(N)SC(N)=C1C#N | 83
3) COc1cc2c(cc1OCCCCCOc1ccc(-c3nc4ccccc4s3)cc1)N=C[C@@H]1CCCN1C2=O | 1.43

Which TGI value is on record for C=C1C(=O)O[C@@H]2C[C@@]3(C)CCC[C@H](C)C3=C[C@H]12 (tested in a mixture with another compound) ?
3.26

Which TGI value is on record for `O=C(O)c1c2c(c(O)c3c1CN(C1CCCCC1)CO3)OCN(C1CCCCC1)C2` ?
73

Which TGI value is on record for O=[N+]([O-])c1ccc(Cl)c(C2CC(c3cccc4ccccc34)=Nc3ccccc3S2=O)c1 (centres undefined) ?
93.1

Which TGI value is on record for `CN1CCC2(CC1)C(=O)Nc1cc(NC(=O)c3ccc4c(c3)C[C@@H]3C(C)(C)[C@H](O)[C@H](F)C[C@@]3(C)O4)ccc12` ?
88.2

* * *

# Tested on: NCI-H226 lung
# experiment summary: NCI tumour cell line growth inhibition, 48 h; in the data active = GI50 below about 0.43 µM; inactive = the rest
Your answer must be one of the following: True (active), False (inactive)

Answered cases to consult:
1) CCCCCOC(=O)c1c(C)[nH]c(/C=C2\N=C(c3ccc[nH]3)C=C2OC)c1C | True
2) COCCn1c(Nc2ccc(C(=O)NO)cc2)nc2ccccc21 | False
3) Cc1ccc(/C=C/C(=O)c2ccc(F)cc2)s1 | False

Record request — test call for `N#Cc1nc2cc(Cl)c(Cl)cc2nc1-c1ccc(Cl)cc1`
False

Record request — test call for `COc1ccc(-c2nn3ncccc3c2-c2ccnc(Nc3ccc(F)c(F)c3)n2)cc1`
False

Record request — test call for `COc1ccc2c(c1[N+](=O)[O-])CC[C@@H]1[C@@H]2CC[C@]2(C)C(=O)CC[C@@H]12`
False

Record request — test call for `Cc1ccc(NC(=O)c2ccoc2)cc1-c1ccc(C(=O)NCC2CC2)cc1`
False

Record request — test call for `COc1cc(-c2csc(NC(=O)Nc3ccc(Cl)cc3)n2)cc(OC)c1OC`
False

Record request — test call for `O=C(O)CN(CCN(CC(=O)O)CC(=O)O)CCN(CC(=O)O)CC(=O)O`
False

Record request — test call for `N#CSc1c[nH]c2ccc(/C=C/C(=O)/C=C(O)/C=C/c3ccc4[nH]cc(SC#N)c4c3)cc12`
False

Record request — test call for `[O-]c1ccccc1C=NCCN=Cc1ccccc1[O-].[O]=[U+2]=[O]`
False

Record request — test call for `CC(C)Cn1cnc2c(N)nc3ccccc3c21`
False

* * *

# System: HCC-2998 colon
# experiment summary: NCI tumour cell line growth inhibition, 48 h; in the data active = GI50 below about 0.43 µM; inactive = the rest
Your answer must be one of the following: t for active, f for inactive

Answered cases to consult:
1. O=c1c2ccccc2c(=O)n2n1-c1cccc(c1)CSSCc1cccc-2c1 | f
2. CC(=O)Nc1ccc(CC[C@H]2CCC/C=C/[C@@H]3C[C@H](O)C[C@H]3[C@H](O)/C=C/C(=O)O2)cc1 | t
3. CCN(Cc1ccccc1)c1ccc(/C=C2\COc3ccccc3C2=O)cc1 | f

Record request — test call for `COc1ccc(-c2nn3ncccc3c2-c2ccnc(Nc3ccc(F)c(F)c3)n2)cc1`
f

Record request — test call for `N#CSc1c[nH]c2ccc(/C=C/C(=O)/C=C(O)/C=C/c3ccc4[nH]cc(SC#N)c4c3)cc12`
f

Record request — test call for `Cc1cc(NC(=O)NCCCOc2ccc(N3C(N)=NC(N)=NC3(C)C)cc2Cl)ccc1S(=O)(=O)F`
f

Record request — test call for `CCCN1CCC(Oc2cc(Nc3nc(Nc4cccc(F)c4C(N)=O)c4cc[nH]c4n3)c(OC)cc2Cl)CC1`
f

Record request — test call for `C/C(=C1\C(=O)Nc2ccccc21)c1cccc(/C(C)=C2/C(=O)Nc3ccccc32)n1`
f

Record request — test call for `COc1ccccc1C1C(C#N)=C(N)SC(N)=C1C#N`
f

Record request — test call for `CN(C)CCN1C(=O)c2cccc3cc(N)cc(c23)C1=O`
f

Record request — test call for `[Cu].c1ccc2c(c1)C1=NC2=NC2=NC(=NC3=NC(=NC4=NC(=N1)c1ccccc14)c1ccccc13)c1ccccc12`
f

* * *

List of TGI values.
# System: TK-10 renal
# experiment summary: NCI tumour cell line growth inhibition, 48 h

Known results for compounds:
1) COc1cc2ncnc(Nc3cccc(Br)c3)c2cc1OC | 13.5 µM
2) CC[O-].CC[O-].[O-]c1ccccc1C=NC12CC3CC(CC(C3)C1)C2.[O-]c1ccccc1C=NC12CC3CC(CC(C3)C1)C2.[Ti+4] | > 100 µM
3) COCCn1c(Nc2ccc(C(=O)NO)cc2)nc2ccccc21 | 44.6 µM

So what TGI did `COc1ccccc1C1C(C#N)=C(N)SC(N)=C1C#N` get with TK-10 renal?
> 100 µM

So what TGI did `O=C(Nc1ccc(Cl)cc1)c1cc(S(=O)(=O)Nc2nc3ncccc3[nH]2)c(SSc2cc(Cl)c(C(=O)Nc3ccc(Cl)cc3)cc2S(=O)(=O)Nc2nc3ncccc3[nH]2)cc1Cl` get with TK-10 renal?
> 100 µM

So what TGI did OC1CCN2Cc3ccccc3N=C12 (stereo not given) get with TK-10 renal?
> 100 µM

So what TGI did CC1OC1C(=O)P(=O)(O)O (stereo not given) get with TK-10 renal?
> 100 µM

So what TGI did COc1cccc2c1C(=O)c1c(O)c3c(c(O)c1C2=O)C[C@@](O)(C(=O)CO)C[C@@H]3OC1CC(N2CCOCC2)C(O)C(C)O1 (stereo not given in full) get with TK-10 renal?
2.07 µM

So what TGI did `NCC(=O)N[C@H]1c2ccsc2/C(=N/O)[C@H]1O` get with TK-10 renal?
> 100 µM

So what TGI did `COc1cc(OC)c(-n2[nH]c(=O)n(C)c2=O)c(OC)c1` get with TK-10 renal?
> 100 µM

* * *

List of TGI values.
# Test system: BT-549 breast
# experiment summary: NCI tumour cell line growth inhibition, 48 h

1. COC(=O)C12C(=O)CC3CCC1C32C(=O)OC (centres undefined) | > 100 µM
2. O=C(Nc1ccc(Cl)cc1)c1cc(S(=O)(=O)Nc2nc3ncccc3[nH]2)c(SSc2cc(Cl)c(C(=O)Nc3ccc(Cl)cc3)cc2S(=O)(=O)Nc2nc3ncccc3[nH]2)cc1Cl | > 100 µM
3. Cc1cc[c]([Sb]2[O]C(CO)C(C(O)C(O)C(=O)O)[O]2)cc1 (centres undefined) | > 100 µM

Which TGI value is on record for CC(NC(=O)c1ccc(Cl)c(Cl)c1)c1ccc(-c2ccccc2)cc1 (centres undefined) ?
> 100 µM

Which TGI value is on record for Clc1ccc2c(NC3CCC(NC4CCCCC4)CC3)ccnc2c1 (centres undefined) ?
25.1 µM

Which TGI value is on record for CCCCCCCCCCCC(c1ccccc1)[N+](C)(C)C (centres undefined) ?
2.95 µM

Which TGI value is on record for `O=S(=O)(O)c1cc(O)c(N=NC2S(=O)(=O)OCCOS2(=O)=O)c2ccccc12` ?
> 100 µM

Which TGI value is on record for `CC(C)OC(=O)Nc1c([N+](=O)[O-])cc(C(F)(F)F)cc1[N+](=O)[O-]` ?
> 100 µM

Which TGI value is on record for `O=c1[nH]c(=O)n(Cc2ccc(C34CC5CC(CC(C5)C3)C4)c(O)c2)cc1F` ?
28.1 µM

* * *

# Test system: COLO 205 colon
# experiment summary: NCI tumour cell line growth inhibition, 48 h
List of log10 TGI values.
Values below are the log10 of the recorded TGI, with µM as the unit.

Known results for compounds:
1. CCOc1ccc2c(c1)[n+]([O-])c(-c1ccccc1)c(N)[n+]2[O-] | 1.91
2. CCCSc1ccc2[nH]c(N3C(=O)/C(=C/c4ccc(O)c(OC)c4)N=C3c3ccccc3)cc2c1 | 1.29
3. CCOc1cc(/C=C/C(=O)CC(=O)/C=C/c2ccc(OC(=O)CNc3nc4ccc(OC)cc4s3)c(OCC)c2)ccc1OC(=O)CNc1nc2ccc(OC)cc2s1 | 1.47
4. Oc1ccc(CCNc2nc3ccccc3c3[nH]c4ccccc4c23)cc1O | 0.83
5. O=c1cc(-c2cccc(Cl)c2)[nH]c2cc3c(cc12)OCO3 | 1.02

Which log10 TGI value is on record for `O=C(c1ccccc1)c1nc2ccc(Cl)cc2cc1C(Br)Br` ?
0.20

Which log10 TGI value is on record for `COCCn1c(Nc2ccc(C(=O)NO)cc2)nc2ccccc21` ?
0.90

Which log10 TGI value is on record for `COc1cc(-c2csc(NC(=O)Nc3ccc(Cl)cc3)n2)cc(OC)c1OC` ?
0.85

Which log10 TGI value is on record for Fc1ccc(/C=C2\COCC3=C2NC(=S)NC3c2ccc(F)cc2)cc1 (stereo unspecified) ?
1.55

Which log10 TGI value is on record for Clc1ccc2c(NC3CCC(NC4CCCCC4)CC3)ccnc2c1 (stereo unspecified) ?
0.51

Which log10 TGI value is on record for `COc1cc2c(c3nc4ccccc4nc13)-c1ccc(SC)c(=O)cc1[C@@H](NC(C)=O)CC2` ?
-0.38

Which log10 TGI value is on record for `CN1CCN(c2cc(F)c(NC3=C(Cl)C(=O)c4ncccc4C3=O)c(F)c2)CC1` ?
0.61

Which log10 TGI value is on record for COC1C(OC(=O)/C=C/C=C/C=C/C=C/C(=O)O)CCC2(CO2)C1C1(C)OC1CC=C(C)C (stereo unspecified) ?
1.42
